method notes: Solubility of indacaterol maleate in water and in maleate buffer
Assay type: physicochemical
condition details: 20 mM sodium maleate buffer, pH 5.5, aqueous buffer, 20 mM sodium maleate (pH 5.5), common ion effect; read-out: solubility in 20 mM maleate buffer
experimental endpoint: solubility

What measured solubility goes with CCc1cc2c(cc1CC)CC(NC[C@H](O)c1ccc(O)c3[nH]c(=O)ccc13)C2 ?
~10 µg/mL
